B1: HDV Ribozyme (parent)
chain: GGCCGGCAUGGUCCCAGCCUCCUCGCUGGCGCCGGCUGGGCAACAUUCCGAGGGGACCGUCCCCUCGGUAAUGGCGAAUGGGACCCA

- Variants of: B1
- protocol.notes: self-cleavage, relative activity (ratio to wild type); higher = more cleavage; co-transcriptional
readout: self-cleavage
Answers are plain numbers.

Answered examples (8):
1) C13U G50C = 0.636
2) G10C G39U = 0.808
3) G5C C44G = 0
4) G25C G82A = 0.0361
5) U12G A43G = 0.237
6) C41A A77G = 0.628
7) G31C C62A = 0.181
8) C4U G35C = 0.119

For each of the variants below, note its self-cleavage.
1. G28C C85G
2. C61U G68A
3. C18U C19U

Found:
1. 0.111
2. 0.727
3. 0
